# target_or_system: CDK2/cyclin A (Homo sapiens)
# Construct: cyclin A: E. coli
# assay_overview: Inhibition of CDK2/Cyclin A Retinoblastoma Kinase Activity
# condition_context: apparent Ki
# Experimental: Cyclin-dependent kinase activity was measured by quantifying the enzyme-catalyzed, time-dependent incorporation of radioactive phosphate from [^32P]ATP or [^33P]ATP into a protein substrate. […] The phosphorylated substrate was then captured on a nitrocellulose or phosphocellulose membrane using a 96-well filtration manifold, and unincorporated radioactivity was removed by repeated washing with 0.85% phosphoric acid. Radioactivity was quantified by exposing the dried membranes to a phosphorimager. […]
pKi: −log10 of the molar value.
Outcome label depends on pKi relative to 8: at/above gives TRUE, below gives FALSE.

Reference set, count: 5
structure_smiles_string	label_class
Cc1c(-c2cccc(CO)c2)cncc1-c1ccc2[nH]nc(-c3nc4ccccc4[nH]3)c2c1	TRUE
CC(C)(C)NCc1cccc2[nH]c(-c3n[nH]c4ccc(-c5cncc6ccccc56)cc34)nc12	TRUE
Cc1c(O)cccc1-c1ccc2[nH]nc(-c3nc4ccccc4[nH]3)c2c1	FALSE
C(=C\c1n[nH]c2ccc(-c3ccccc3)cc12)/c1ccccc1	FALSE
Cc1c(CN2CCOCC2)cncc1-c1ccc2[nH]nc(-c3nc4ccccc4[nH]3)c2c1	TRUE

Asked: Kindly determine if pKi recorded for `c1ccc2c(-c3ccc4[nH]nc(-c5nc6c(Cn7ccnc7)cccc6[nH]5)c4c3)cncc2c1` is above or exactly 8.
Given back: TRUE

Asked: Kindly determine if pKi recorded for `Cc1c(CNCc2ccccc2)cncc1-c1ccc2[nH]nc(-c3nc4ccccc4[nH]3)c2c1` is above or exactly 8.
Given back: TRUE
